B1: glmS ribozyme (parent)
chain: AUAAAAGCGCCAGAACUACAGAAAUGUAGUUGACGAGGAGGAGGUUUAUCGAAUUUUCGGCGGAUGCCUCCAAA

- Variants of: B1
- Test: self-cleavage kobs at 2500 uM GlcN6P; higher = faster cleavage; RNA array
- Condition parameters: with glucosamine-6-phosphate
Fewer inactive variants are shown than the library holds.
Value kind: self-cleavage kobs at 2500 uM GlcN6P (s⁻¹)

INSERT INTO results (mutant_name, value_kind, value_units, comparison_operator, result) VALUES
  ('G32U U46C', 'self-cleavage kobs at 2500 uM GlcN6P', 's⁻¹', '=', '3.86e-05'),
  ('A6G C68U', 'self-cleavage kobs at 2500 uM GlcN6P', 's⁻¹', '=', '8.68e-05'),
  ('A52G A53G', 'self-cleavage kobs at 2500 uM GlcN6P', 's⁻¹', '=', 0.000638),
  ('C16A A33U A52U', 'self-cleavage kobs at 2500 uM GlcN6P', 's⁻¹', '<', '1e-05'),
  ('U46C G60U C70U', 'self-cleavage kobs at 2500 uM GlcN6P', 's⁻¹', '<', '1e-05'),
  ('G43A U45A A53U G62C A64U', 'self-cleavage kobs at 2500 uM GlcN6P', 's⁻¹', '<', '1e-05'),
  ('U47G U55C', 'self-cleavage kobs at 2500 uM GlcN6P', 's⁻¹', '=', 0.00386),
  ('A39G U54A C71G', 'self-cleavage kobs at 2500 uM GlcN6P', 's⁻¹', '=', 0.00114),
  ('U31G C68U C71U', 'self-cleavage kobs at 2500 uM GlcN6P', 's⁻¹', '=', '7.95e-05'),
  ('G35A A52U A53G C70U', 'self-cleavage kobs at 2500 uM GlcN6P', 's⁻¹', '<', '1e-05'),
  ('G13A U47A G66A', 'self-cleavage kobs at 2500 uM GlcN6P', 's⁻¹', '=', 0.000103),
  ('G29A U30A U31C', 'self-cleavage kobs at 2500 uM GlcN6P', 's⁻¹', '=', 0.000309),
  ('A14C A64G', 'self-cleavage kobs at 2500 uM GlcN6P', 's⁻¹', '=', 0.00221),
  ('U57G C71A', 'self-cleavage kobs at 2500 uM GlcN6P', 's⁻¹', '=', '3.2e-05'),
  ('C34U U45G', 'self-cleavage kobs at 2500 uM GlcN6P', 's⁻¹', '<', '1e-05'),
  ('C8G A52G', 'self-cleavage kobs at 2500 uM GlcN6P', 's⁻¹', '<', '1e-05'),
  ('A6G A14U U54A', 'self-cleavage kobs at 2500 uM GlcN6P', 's⁻¹', '=', 0.000117),
  ('U46G U65A C71U', 'self-cleavage kobs at 2500 uM GlcN6P', 's⁻¹', '=', 0.00173),
  ('U31C A33U U46A U57C C70U C71G', 'self-cleavage kobs at 2500 uM GlcN6P', 's⁻¹', '<', '1e-05'),
  ('C8U G9C G62A U65G', 'self-cleavage kobs at 2500 uM GlcN6P', 's⁻¹', '<', '1e-05'),
  ('A14U U56C', 'self-cleavage kobs at 2500 uM GlcN6P', 's⁻¹', '=', 0.000307),
  ('A39U G51C C71G', 'self-cleavage kobs at 2500 uM GlcN6P', 's⁻¹', '<', '1e-05'),
  ('G7A A39C G59C C70U', 'self-cleavage kobs at 2500 uM GlcN6P', 's⁻¹', '<', '1e-05'),
  ('G7A U30A G60C', 'self-cleavage kobs at 2500 uM GlcN6P', 's⁻¹', '<', '1e-05'),
  ('A6C G29U G32A U45A G60A', 'self-cleavage kobs at 2500 uM GlcN6P', 's⁻¹', '<', '1e-05'),
  ('A14C U46G G66A', 'self-cleavage kobs at 2500 uM GlcN6P', 's⁻¹', '=', 0.000166),
  ('A6U U47A A53G G59U', 'self-cleavage kobs at 2500 uM GlcN6P', 's⁻¹', '<', '1e-05'),
  ('A6C A53U C58U', 'self-cleavage kobs at 2500 uM GlcN6P', 's⁻¹', '<', '1e-05'),
  ('G7C U30A', 'self-cleavage kobs at 2500 uM GlcN6P', 's⁻¹', '<', '1e-05'),
  ('A42U U47C A52C', 'self-cleavage kobs at 2500 uM GlcN6P', 's⁻¹', '<', '1e-05'),
  ('A12C A14U', 'self-cleavage kobs at 2500 uM GlcN6P', 's⁻¹', '=', 0.000202),
  ('C8A C10U G35A G38A C68U', 'self-cleavage kobs at 2500 uM GlcN6P', 's⁻¹', '=', '4.94e-05'),
  ('U46G A48U', 'self-cleavage kobs at 2500 uM GlcN6P', 's⁻¹', '=', 0.000128),
  ('U55G U65A', 'self-cleavage kobs at 2500 uM GlcN6P', 's⁻¹', '=', 0.00174),
  ('A12C G38C G44A A64G', 'self-cleavage kobs at 2500 uM GlcN6P', 's⁻¹', '<', '1e-05'),
  ('G7C G38C A48C', 'self-cleavage kobs at 2500 uM GlcN6P', 's⁻¹', '<', '1e-05'),
  ('C10A U69G', 'self-cleavage kobs at 2500 uM GlcN6P', 's⁻¹', '=', 0.000329),
  ('G44A G51A U65G C67G', 'self-cleavage kobs at 2500 uM GlcN6P', 's⁻¹', '<', '1e-05'),
  ('U46A U56G C67G', 'self-cleavage kobs at 2500 uM GlcN6P', 's⁻¹', '=', 0.000172),
  ('A52G C71A', 'self-cleavage kobs at 2500 uM GlcN6P', 's⁻¹', '=', 0.000247),
  ('C10U U46A U49A G62A', 'self-cleavage kobs at 2500 uM GlcN6P', 's⁻¹', '<', '1e-05'),
  ('G35A G62C', 'self-cleavage kobs at 2500 uM GlcN6P', 's⁻¹', '<', '1e-05');

Data credit: the supplement of paper PMC7125110
